Tested on: Mycobacterium tuberculosis
Experimental Protocol: Antitubercular activity against multi-drug resistant Mycobacterium tuberculosis K26b00MR after 14 days in presence of middlebrook 7H9/BSA medium by eleven fold serial dilution method
Assay type: functional
Measurement Setup: 336 h
Quantity Kind: MIC (µg/mL)
Numeric only. Scale: µg/mL

# get_value(readout='MIC', item= C[C@H](NC(=O)N1C(=O)C[C@@H]1Sc1ccc(C(F)(F)F)cc1)c1ccccc1 )
12.5

Could you do the same for C[C@@H](NC(=O)N1C(=O)C[C@@H]1Sc1ccc(F)cc1F)c1ccccc1 , please?
25

And the next one, O=C1CC(Sc2ccc(C(F)(F)F)cc2)N1C(=O)NCc1ccccc1 (racemic) ?
12.5

----------
Tested on: Mycobacterium tuberculosis
Experimental Protocol: Antitubercular activity against multi-drug resistant Mycobacterium tuberculosis K22b00MR after 14 days in presence of middlebrook 7H9/BSA medium by eleven fold serial dilution method
Format: functional
Measurement Setup: 336 h
Quantity Kind: MIC (µg/mL)
Output spec: scalar in µg/mL, unitless text.

Look at this compound and give its reported MIC. C[C@H](NC(=O)N1C(=O)C[C@H]1Sc1ccc(F)cc1F)c1ccccc1
25

Another compound to check: C[C@@H](NC(=O)N1C(=O)C[C@H]1Sc1ccc(F)cc1F)c1ccccc1
12.5

Please do the same for C[C@@H](NC(=O)N1C(=O)C[C@@H]1Sc1ccc(F)cc1F)c1ccccc1 as well.
12.5

Query NNC(=O)c1ccncc1 next
0.6

Cool, now O=C1CC(Sc2ccc(C(F)(F)F)cc2)N1C(=O)NCc1ccccc1 (racemic)
12.5

Queued: C[C@H](NC(=O)N1C(=O)C[C@@H]1Sc1ccc(C(F)(F)F)cc1)c1ccccc1
12.5

----------
Tested on: Mycobacterium tuberculosis
Experimental Protocol: Antitubercular activity against multi-drug resistant Mycobacterium tuberculosis K26b00MR after 14 days in presence of middlebrook 7H9/BSA medium by eleven fold serial dilution method
Type: functional
Measurement Setup: 336 h
Assign MIC to each entry below.

I have this compound here, C[C@H](NC(=O)N1C(=O)C[C@H]1Sc1ccc(F)cc1F)c1ccccc1 , and I need its recorded MIC.
25 to 50 µg/mL

Next record, please: NNC(=O)c1ccncc1
> 1 µg/mL

What do we get for C[C@@H](NC(=O)N1C(=O)C[C@H]1Sc1ccc(F)cc1F)c1ccccc1 ?
12.5 to 25 µg/mL
